# study target: EGFR LTC (Homo sapiens, UniProt P00533, C797S/L858R/T790M)
# Construct: expressed in transfected cells; host or cells: BaF3
# Sequence (P00533 25-1210 T790M/C797S/L858R): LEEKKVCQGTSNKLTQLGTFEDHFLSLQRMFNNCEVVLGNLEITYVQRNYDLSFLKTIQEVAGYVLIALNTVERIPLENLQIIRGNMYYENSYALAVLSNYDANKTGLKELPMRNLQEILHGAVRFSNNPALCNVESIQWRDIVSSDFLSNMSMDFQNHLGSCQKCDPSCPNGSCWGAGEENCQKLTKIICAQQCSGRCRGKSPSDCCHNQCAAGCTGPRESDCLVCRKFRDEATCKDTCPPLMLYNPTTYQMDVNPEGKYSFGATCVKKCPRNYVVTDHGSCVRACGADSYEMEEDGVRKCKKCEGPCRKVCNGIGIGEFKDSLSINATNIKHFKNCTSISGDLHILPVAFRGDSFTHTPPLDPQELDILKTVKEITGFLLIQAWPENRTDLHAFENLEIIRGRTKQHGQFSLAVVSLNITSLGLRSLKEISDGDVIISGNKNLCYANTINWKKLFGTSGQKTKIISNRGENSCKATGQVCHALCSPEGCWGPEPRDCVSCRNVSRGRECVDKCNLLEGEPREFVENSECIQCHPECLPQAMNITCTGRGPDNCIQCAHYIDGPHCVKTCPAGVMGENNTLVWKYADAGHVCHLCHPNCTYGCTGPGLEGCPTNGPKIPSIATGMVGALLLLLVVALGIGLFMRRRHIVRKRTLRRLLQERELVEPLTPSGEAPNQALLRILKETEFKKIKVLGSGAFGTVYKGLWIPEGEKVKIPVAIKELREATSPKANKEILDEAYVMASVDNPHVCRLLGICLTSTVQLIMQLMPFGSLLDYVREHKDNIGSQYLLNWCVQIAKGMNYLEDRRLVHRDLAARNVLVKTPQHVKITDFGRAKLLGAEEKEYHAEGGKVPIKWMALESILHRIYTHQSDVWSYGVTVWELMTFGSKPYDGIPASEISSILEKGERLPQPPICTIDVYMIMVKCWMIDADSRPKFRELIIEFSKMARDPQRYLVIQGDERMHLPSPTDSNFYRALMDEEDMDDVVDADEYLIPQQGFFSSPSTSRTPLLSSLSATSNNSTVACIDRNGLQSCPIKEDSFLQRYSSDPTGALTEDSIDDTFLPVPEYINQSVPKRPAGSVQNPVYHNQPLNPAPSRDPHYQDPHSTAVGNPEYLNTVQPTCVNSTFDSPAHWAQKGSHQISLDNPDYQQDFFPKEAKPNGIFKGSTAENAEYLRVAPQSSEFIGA
# method: Cell Degradation 3: EGFR degradation in BaF3 cells (LTC), HTRF assay
# Type: cell-based
# conditions used: 16 h treatment, EGFR degradation by HTRF
Note to self: use Satisfied only for DC50 readings below 20 nM; a reading exactly at 20 nM still gets Not satisfied.

# molecule, class assignment
rows = [
    ("CS(=O)(=O)N1CCc2cccc(Nc3nc(Nc4ccc(N5CCC(N6CCN(C(=O)CCN7CCN(c8ccc9c(c8)C(=O)N(C8CCC(=O)NC8=O)C9=O)CC7)CC6)CC5)c(F)c4)nc4[nH]ccc34)c21 (stereo not shown) [Example 15]", "Not satisfied"),
    ("COc1cc(N2CCC(N3CCN(C[C@H]4C[C@H](N(C)c5ccc6c(c5)C(=O)N(C5CCC(=O)NC5=O)C6=O)C4)CC3)CC2)c(C)cc1Nc1ncc(Br)c(Nc2cccc3c2N(S(C)(=O)=O)CC3)n1 (stereo partly shown) [Example 165]", "Not satisfied"),
    ("COc1cc(N2CCC(N3CCN(CCc4ccc(C5CCC(=O)NC5=O)c(F)c4)CC3)CC2)c(C)cc1Nc1nc(Nc2cccc3c2N(S(C)(=O)=O)CC3)c2cc[nH]c2n1 (stereo not shown) [Example 162]", "Not satisfied"),
    ("COc1cc(N2CCC(N3CCN(CC4CN(c5ccc6c(c5)C(=O)N(C5CCC(=O)NC5=O)C6=O)C4)CC3)CC2)ccc1Nc1ncc(Cl)c(Nc2cccc3c2N(S(C)(=O)=O)CC3)n1 (stereo not shown) [Example 86]", "Satisfied"),
    ("COc1cc(N2CCC(N3CCN(C[C@H]4CCN(c5ccc6c(c5)CN(C5CCC(=O)NC5=O)C6=O)C4)CC3)CC2)c(C)cc1Nc1ncc(Br)c(Nc2cccc3c2N(S(C)(=O)=O)CC3)n1 (stereo partly shown) [Example 168]", "Not satisfied"),
    ("CS(=O)(=O)N1CCc2cccc(Nc3nc(Nc4ccc(N5CCC(N6CCN(CCC7CCN(c8cc(F)c(C9CCC(=O)NC9=O)c(F)c8)CC7)CC6)CC5)c(F)c4)nc4[nH]ccc34)c21 (stereo not shown) [Example 67]", "Satisfied"),
    ("CS(=O)(=O)N1CCc2cccc(Nc3nc(Nc4ccc(N5CCC(N6CCN(CCc7ccc(C8CCC(=O)NC8=O)cc7)CC6)CC5)c(F)c4)ncc3Cl)c21 (stereo not shown) [Example 45]", "Satisfied"),
    ("COc1cc(N2CCC(N3CCN(C4CCN(c5ccc6c(c5)C(=O)N(C5CCC(=O)NC5=O)C6=O)CC4)CC3)CC2)c(C)cc1Nc1ncc(Br)c(Nc2cccc3c2N(S(C)(=O)=O)CC3)n1 (stereo not shown) [Example 167]", "Not satisfied"),
    ("CCc1cc(Nc2ncc(Br)c(Nc3ccc(C4CC4)c4c3N(S(C)(=O)=O)CC4)n2)c(OC)cc1N1CCC(N2CCN(CCc3cc(F)c(C4CCC(=O)NC4=O)c(F)c3)CC2)CC1 (stereo not shown) [Example 193]", "Not satisfied"),
    ("COc1cc(N2CCC(N3CCN(C(=O)C4CN(c5ccc6c(c5)C(=O)N(C5CCC(=O)NC5=O)C6)C4)CC3)CC2)c(C)cc1Nc1ncc(Br)c(Nc2cccc3c2N(S(C)(=O)=O)CC3)n1 (stereo not shown) [Example 171]", "Satisfied"),
]
